- tested_target: human Nox4 (Homo sapiens, UniProt Q9NPH5)
- Construct: expressed in transfected cells; host or cells: T-REx-293 (hNOX4 T-REx-293), tetracycline-induced; membrane fraction
- experiment_summary: ROS production by membranes expressing human Nox4, cell-free Amplex Red assay
- Format: biochemical
- assay_context: cell-free membranes, Amplex Red; Cheng-Prusoff; average of at least three experiments in triplicate; read-out: Ki hNox4
measured_attribute: pKi
FYI, pKi means -log10 of a concentration in mol per litre.

{"columns": ["smiles_str", "pKi"],
 "data": [
  ["O=c1c2c(-c3ccc(Cl)cc3)n(Cc3nccs3)c(=O)cc2[nH]n1-c1ccccc1Cl", 6.90],
  ["O=c1c2c(-c3ccccc3F)n(Cc3ccccn3)c(=O)cc2[nH]n1-c1ccccc1Cl", 6.92],
  ["COc1ccccc1-n1[nH]c2cc(=O)n(Cc3cccnc3)c(-c3cc(Cl)ccc3F)c2c1=O", 7.09],
  ["O=c1c2c(-c3c(F)cccc3F)n(Cc3ccncc3)c(=O)cc2[nH]n1-c1ccccc1Cl", 6.96],
  ["COc1ccc(-c2c3c(=O)n(-c4ccccc4Cl)[nH]c3cc(=O)n2Cc2ccn(C)n2)c(F)c1", 7.21],
  ["COc1ccc(Cn2c(C)c3c(=O)n(-c4ccccc4Cl)[nH]c3cc2=O)cn1", 7.13],
  ["CN(C)c1cccc(-c2c3c(=O)n(-c4ccccc4Cl)[nH]c3cc(=O)n2Cc2cccnc2)c1", 6.83]
]}

Okay, now this compound:
Fill in pKi for record `O=c1c2c(-c3cc(Cl)ccc3F)n(Cc3cccnc3)c(=O)cc2[nH]n1-c1ccccc1Cl`
7.13

----------
- tested_target: human Nox4 (Homo sapiens, UniProt Q9NPH5)
- Construct: expressed in transfected cells; host or cells: T-REx-293 (hNOX4 T-REx-293), tetracycline-induced; membrane fraction
- Sequence (Q9NPH5 1-578): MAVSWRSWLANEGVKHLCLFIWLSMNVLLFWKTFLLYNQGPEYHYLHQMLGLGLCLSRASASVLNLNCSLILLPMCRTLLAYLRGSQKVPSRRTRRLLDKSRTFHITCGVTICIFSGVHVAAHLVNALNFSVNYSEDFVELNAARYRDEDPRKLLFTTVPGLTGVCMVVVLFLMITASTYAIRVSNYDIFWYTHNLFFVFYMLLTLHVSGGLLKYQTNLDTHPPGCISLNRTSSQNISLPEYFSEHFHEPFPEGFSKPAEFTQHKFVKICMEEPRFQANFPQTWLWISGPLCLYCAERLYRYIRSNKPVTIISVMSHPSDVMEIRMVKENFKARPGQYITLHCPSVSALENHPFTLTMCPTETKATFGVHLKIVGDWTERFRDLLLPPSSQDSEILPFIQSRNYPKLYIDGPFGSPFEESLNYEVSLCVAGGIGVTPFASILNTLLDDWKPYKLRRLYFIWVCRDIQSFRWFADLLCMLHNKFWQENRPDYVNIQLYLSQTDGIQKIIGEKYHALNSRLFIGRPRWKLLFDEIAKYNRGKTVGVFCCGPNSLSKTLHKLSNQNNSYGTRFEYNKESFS
- Sequence (P13498 2-195 partner limits assumed): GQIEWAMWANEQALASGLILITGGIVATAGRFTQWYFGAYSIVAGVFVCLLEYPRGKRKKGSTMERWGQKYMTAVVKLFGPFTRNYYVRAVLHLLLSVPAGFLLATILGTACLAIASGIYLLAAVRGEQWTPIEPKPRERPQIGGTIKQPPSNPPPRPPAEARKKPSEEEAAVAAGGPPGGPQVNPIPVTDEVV
- experiment_summary: ROS production by membranes expressing human Nox4, cell-free Amplex Red assay
- Format: biochemical
- assay_context: cell-free membranes, Amplex Red; Cheng-Prusoff; average of at least three experiments in triplicate; read-out: Ki hNox4
measured_attribute: pKi
Please report pKi as the negative decimal logarithm of the molar concentration, giving only the number.

Use these answered entries as a reference point.
{"columns": ["molecule", "tested_target", "pKi"],
 "data": [
  ["Cc1c2c(=O)n(-c3ccccc3Cl)[nH]c2cc(=O)n1Cc1cccnc1 [(15)]", "human Nox4 (Homo sapiens, UniProt Q9NPH5)", 7.08],
  ["O=c1c2c(-c3ccc(Cl)cc3F)n(Cc3ccncc3)c(=O)cc2[nH]n1-c1ccccc1Cl [(19)]", "human Nox4 (Homo sapiens, UniProt Q9NPH5)", 7.04],
  ["COc1ccc(F)c(-c2c3c(=O)n(-c4ccccc4OC)[nH]c3cc(=O)n2Cc2ccn(C)n2)c1 [(13)]", "human Nox4 (Homo sapiens, UniProt Q9NPH5)", 7.10],
  ["COc1cccc(-c2c3c(=O)n(-c4ccccc4OC)[nH]c3cc(=O)n2Cc2cccnc2)c1 [(24)]", "human Nox4 (Homo sapiens, UniProt Q9NPH5)", 7.00],
  ["COc1ccc(F)c(-c2c3c(=O)n(-c4ccccc4OC)[nH]c3cc(=O)n2Cc2cccnc2)c1 [(5)]", "human Nox4 (Homo sapiens, UniProt Q9NPH5)", 7.20],
  ["COc1ccc(-c2c3c(=O)n(-c4ccccc4Cl)[nH]c3cc(=O)n2Cc2cnccn2)cc1 [(2)]", "human Nox4 (Homo sapiens, UniProt Q9NPH5)", 7.32],
  ["O=c1c2c(-c3cc(Cl)cc(Cl)c3)n(Cc3ccncc3)c(=O)cc2[nH]n1-c1ccccc1Cl [(37)]", "human Nox4 (Homo sapiens, UniProt Q9NPH5)", 6.89]
]}

Proceed to the following item.
Indicate the recorded pKi value for this molecule: COc1ccc(-c2c3c(=O)n(-c4ccccc4Cl)[nH]c3cc(=O)n2Cc2ccncc2)c(F)c1 [(27)]
6.97
